The reader will find reported IC50 values listed item by item below.
# Tested on: angiotensin I converting enzyme in excised guinea pig ileum
# experimental protocol: Inhibition of angiotensin I converting enzyme in excised guinea pig ileum (contractile activity of angiotensin I)
# Assay type: cell-based
# conditions: Cavia porcellus, Krebs solution at 37°, angiotensin I added after two minutes, read-out: IC50 (inhibition of the contractile activity of angiotensin I by 50%)
Non-standard residues stand in square brackets, D forms with d. Residues, ends and D or L forms follow the SMILES beside them.
The reply should contain only the number, in µg/mL.

Use the examples below as a reference point.
{"molecule": "NCCCC(CS)C(=O)N1CCC[C@H]1C(=O)O (mixture of isomers)", "IC50, µg/mL": 0.47}
{"molecule": "N[C@@H](CS)C(=O)N1CCC[C@H]1C(=O)O [L-Cysteinyl-L-proline] (H-Cys-Pro-OH)", "IC50, µg/mL": 23}
{"molecule": "CC(=O)NC(CSC(C)=O)C(=O)N1CCC[C@H]1C(=O)O (mixture of isomers)", "IC50, µg/mL": 23}
{"molecule": "N[C@H](CS)C(=O)N1CCC[C@H]1C(=O)O [D-Cysteinyl-L-proline] (H-[dC]-Pro-OH)", "IC50, µg/mL": 0.05}

For the next question, use this molecule.
For CC(=O)NC(CS)C(=O)N1CCC[C@H]1C(=O)O (mixture of isomers) , what is its reported IC50?
0.6
